Data credit: the supplement of paper PMC10567573

B1: SMG5 (parent)
chain: FVSIAQSEQESLLQQAQAQFRMAQ

- Variants of: B1
- Experiment: protein stability index of a GFP-peptide fusion (GPS, HEK-293T) (PSI 1-6); higher = more stable;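 also: lentivirally expressed fusions sorted by FACS into six bins by GFP to DsRed ratio, PSI derived from sequencing read proportions per bin multiplied by bin number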
- Conditions: c terminus: a fixed tail appended
Entries and their protein stability index values follow.
Please respond with just the number, no unit label.

> print(dat)
    var  result.number
1   Q6P           2.35
2   E8G           1.86
3   F1P           3.77
4  L13R           2.07
5  A18M            1.7

Could you now consider this next variant?
Please indicate protein stability index recorded for V2T
3.35
